- Test system: CHP-212 (Neuroblastoma)
- protocol-details: Bliss excess, mean over the matrix (fraction); higher = more synergy
Bliss excess reference
// return a plain number; no unit text

Field: example entries. Status: answers known.
compound | Bliss excess
Cc1c2c(nn1C)CSCc1cc(n(C)n1)CSc1cc(c3ccccc3c1)OCCCc1c(C(=O)O)n(C)c3c-2c(Cl)ccc13 [AZD5991] + CCN(CCO)CCCOc1ccc2c(Nc3cc(CC(=O)Nc4cccc(F)c4)[nH]n3)ncnc2c1 [AZD2811] (first compound max 1 µM, 7x7, partner max 1 µM) | -0.0496
CC1(C)CCC(CN2CCN(c3ccc(C(=O)NS(=O)(=O)c4ccc(NCC5CCOCC5)c([N+](=O)[O-])c4)c(Oc4cnc5[nH]ccc5c4)c3)CC2)=C(c2ccc(Cl)cc2)C1 [Venetoclax] + CN(C)CCCOc1ccc(-c2ccc3ncc4c(c3c2)n(C2CCOCC2)c(=O)n4C)cn1 [AZD0156] (first compound max 1 µM, 7x7, partner max 1 µM) | -0.034

// moving on: another record for Bliss excess
The reported Bliss excess value, CHP-212 (Neuroblastoma), for CN(CCO)CC[C@H](CSc1ccccc1)Nc1ccc(S(=O)(=O)NC(=O)c2ccc(N3CCC([C@@H](O)c4ccccc4-c4ccc(Cl)cc4)CC3)cc2)cc1S(=O)(=O)C(F)(F)F [AZD4320] + Cn1cnc2c(F)c(Nc3ccc(Br)cc3Cl)c(C(=O)NOCCO)cc21 [Selumetinib] (first compound max 1 µM, 7x7, partner max 3 µM) reads -0.0108

====

As shown below, each of these molecules has a reported combination Emax value.
- Test system: ES8 (Ewing's Sarcoma)
- protocol-details: combination Emax (second highest fraction inhibited in the dose matrix, 72 h); higher = more inhibition; extreme values may be limits of the assay
Returns: the value as a bare number; no unit string appended.

For orientation, consider the following solved cases.
molecule | measured-target | combination Emax
COc1nnc2ccc(N3CCC(c4ccc(OCCN5CCN(C)C(=O)[C@H]5C)cc4)CC3)nn12 [AZD5153] + C=CCn1c(=O)c2cnc(Nc3ccc(N4CCN(C)CC4)cc3)nc2n1-c1cccc(C(C)(C)O)n1 [AZD1775] (first compound max 1 µM, partner max 1 µM) | ES8 (Ewing's Sarcoma) | 0.779
COc1cccc(OCCCN)c1-c1cc(Nc2cnc(C#N)cn2)n[nH]1 [Prexasertib] + C[C@@H]1COCCN1C2=NC(=NC(=C2)C3(CC3)[S@](=N)(=O)C)C4=C5C=CNC5=NC=C4 [AZD6738] (first compound max 1 µM, 7x7, partner max 10 µM) | ES8 (Ewing's Sarcoma) | 0.798

Data point: Cn1cnc2c(F)c(Nc3ccc(Br)cc3Cl)c(C(=O)NOCCO)cc21 [Selumetinib] + C=CCn1c(=O)c2cnc(Nc3ccc(N4CCN(C)CC4)cc3)nc2n1-c1cccc(C(C)(C)O)n1 [AZD1775] (first compound max 10 µM, partner max 1 µM) ; combination Emax = 0.491

Quick note, combination Emax for CCN(CCO)CCCOc1ccc2c(Nc3cc(CC(=O)Nc4cccc(F)c4)[nH]n3)ncnc2c1 [AZD2811] + O=C(c1cc(Cc2n[nH]c(=O)c3ccccc23)ccc1F)N1CCN(C(=O)C2CC2)CC1 [Olaparib] (first compound max 1 µM, 7x7, partner max 10 µM) landed at 0.997

Note to self: combination Emax recorded for Cc1c2c(nn1C)CSCc1cc(n(C)n1)CSc1cc(c3ccccc3c1)OCCCc1c(C(=O)O)n(C)c3c-2c(Cl)ccc13 [AZD5991] + CS(=O)(=O)CCNCc1ccc(-c2ccc3ncnc(Nc4ccc(OCc5cccc(F)c5)c(Cl)c4)c3c2)o1 [Lapatinib] (first compound max 1 µM, 7x7, partner max 10 µM) was 0.763

====

- System: CAMA-1 (Breast Carcinoma)
- protocol-details: Bliss excess, mean over the matrix (fraction); higher = more synergy
Lab note: compare Bliss excess against -0.01. Equal or greater, write condition met. Smaller, write condition not met.

molecule | qualitative-label
CC1(C)CCC(CN2CCN(c3ccc(C(=O)NS(=O)(=O)c4ccc(NCC5CCOCC5)c([N+](=O)[O-])c4)c(Oc4cnc5[nH]ccc5c4)c3)CC2)=C(c2ccc(Cl)cc2)C1 [Venetoclax] + C[C@@H](Nc1cc(F)cc(F)c1)c1cc(C(=O)N(C)C)cc2c(=O)cc(N3CCOCC3)oc12 [AZD8186] (first compound max 1 µM, 7x7, partner max 3 µM) | condition not met
COc1nnc2ccc(N3CCC(c4ccc(OCCN5CCN(C)C(=O)[C@H]5C)cc4)CC3)nn12 [AZD5153] + C=CCn1c(=O)c2cnc(Nc3ccc(N4CCN(C)CC4)cc3)nc2n1-c1cccc(C(C)(C)O)n1 [AZD1775] (first compound max 1 µM, partner max 1 µM) | condition not met
CC1(C)CCC(CN2CCN(c3ccc(C(=O)NS(=O)(=O)c4ccc(NCC5CCOCC5)c([N+](=O)[O-])c4)c(Oc4cnc5[nH]ccc5c4)c3)CC2)=C(c2ccc(Cl)cc2)C1 [Venetoclax] + CCN(CCO)CCCOc1ccc2c(Nc3cc(CC(=O)Nc4cccc(F)c4)[nH]n3)ncnc2c1 [AZD2811] (first compound max 1 µM, 7x7, partner max 1 µM) | condition not met
O=C(c1cc(Cc2n[nH]c(=O)c3ccccc23)ccc1F)N1CCN(C(=O)C2CC2)CC1 [Olaparib] + Cc1c2c(nn1C)CSCc1cc(n(C)n1)CSc1cc(c3ccccc3c1)OCCCc1c(C(=O)O)n(C)c3c-2c(Cl)ccc13 [AZD5991] (first compound max 10 µM, 7x7, partner max 1 µM) | condition met

Confirm if Bliss excess reported for the molecule Cc1c2c(nn1C)CSCc1cc(n(C)n1)CSc1cc(c3ccccc3c1)OCCCc1c(C(=O)O)n(C)c3c-2c(Cl)ccc13 [AZD5991] + C1CN(CCC1(C(=O)N[C@@H](CCO)C2=CC=C(C=C2)Cl)N)C3=NC=NC4=C3C=CN4 [Capivasertib] (first compound max 1 µM, 7x7, partner max 3 µM) is -0.01 or above.
condition met

Determine whether this molecule has Bliss excess no lower than -0.01: Cc1c2c(nn1C)CSCc1cc(n(C)n1)CSc1cc(c3ccccc3c1)OCCCc1c(C(=O)O)n(C)c3c-2c(Cl)ccc13 [AZD5991] + CS(=O)(=O)CCNCc1ccc(-c2ccc3ncnc(Nc4ccc(OCc5cccc(F)c5)c(Cl)c4)c3c2)o1 [Lapatinib] (first compound max 1 µM, 7x7, partner max 10 µM)
condition met

====

- System: NCI-H1792 (Lung Adenocarcinoma)
- protocol-details: Bliss excess, mean over the matrix (fraction); higher = more synergy
measured-metric: Bliss excess
API doc: respond with a numeric literal and nothing else, no unit.

compound | Bliss excess
CC1(C)CCC(CN2CCN(c3ccc(C(=O)NS(=O)(=O)c4ccc(NCC5CCOCC5)c([N+](=O)[O-])c4)c(Oc4cnc5[nH]ccc5c4)c3)CC2)=C(c2ccc(Cl)cc2)C1 [Venetoclax] + COc1cc(Nc2ncc3c(n2)-c2ccc(Cl)cc2C(c2c(F)cccc2OC)=NC3)ccc1C(=O)O [Alisertib] (first compound max 1 µM, 7x7, partner max 10 µM) | 0.0603

Please look at the following compound next.
Documented Bliss excess of Cc1c2c(nn1C)CSCc1cc(n(C)n1)CSc1cc(c3ccccc3c1)OCCCc1c(C(=O)O)n(C)c3c-2c(Cl)ccc13 [AZD5991] + Cc1cc2ncnn2cc1Nc1ncc2c(n1)n(C1CCOCC1)c(=O)n2C [AZD7648] (first compound max 1 µM, 7x7, partner max 10 µM) : -0.0248

====

- Tested on: SW1417 (Colorectal Carcinoma)
- protocol-details: Bliss excess, mean over the matrix (fraction); higher = more synergy
Recorded Bliss excess for the following compounds

compound | Bliss excess
C[C@@H](Nc1cc(F)cc(F)c1)c1cc(C(=O)N(C)C)cc2c(=O)cc(N3CCOCC3)oc12 [AZD8186] + CC(=O)c1c(C)c2cnc(Nc3ccc(N4CCNCC4)cn3)nc2n(C2CCCC2)c1=O [Palbociclib] (first compound max 10 µM, 7x7, partner max 10 µM) | 0.0187

Please look at the following compound next.
The compound Cc1cc2ncnn2cc1Nc1ncc2c(n1)n(C1CCOCC1)c(=O)n2C [AZD7648] + CCN(CCO)CCCOc1ccc2c(Nc3cc(CC(=O)Nc4cccc(F)c4)[nH]n3)ncnc2c1 [AZD2811] (first compound max 10 µM, 7x7, partner max 1 µM) showed Bliss excess equal to -0.106

====

- Tested on: EVSA-T (Breast Carcinoma)
- protocol-details: Bliss excess, mean over the matrix (fraction); higher = more synergy
The entries below come with measured Bliss excess values attached.
Write no unit; give the number alone.

Recorded results for 2 compounds are shown here.
compound | reported-value
CC(=O)c1c(C)c2cnc(Nc3ccc(N4CCNCC4)cn3)nc2n(C2CCCC2)c1=O [Palbociclib] + Cn1cnc2c(F)c(Nc3ccc(Br)cc3Cl)c(C(=O)NOCCO)cc21 [Selumetinib] (first compound max 10 µM, 7x7, partner max 10 µM) | -0.0035
CC1(C)CCC(CN2CCN(c3ccc(C(=O)NS(=O)(=O)c4ccc(NCC5CCOCC5)c([N+](=O)[O-])c4)c(Oc4cnc5[nH]ccc5c4)c3)CC2)=C(c2ccc(Cl)cc2)C1 [Venetoclax] + C=CCn1c(=O)c2cnc(Nc3ccc(N4CCN(C)CC4)cc3)nc2n1-c1cccc(C(C)(C)O)n1 [AZD1775] (first compound max 1 µM, partner max 1 µM) | 0.0075

Query compound follows.
The recorded Bliss excess for entry CN(CCO)CC[C@H](CSc1ccccc1)Nc1ccc(S(=O)(=O)NC(=O)c2ccc(N3CCC([C@@H](O)c4ccccc4-c4ccc(Cl)cc4)CC3)cc2)cc1S(=O)(=O)C(F)(F)F [AZD4320] + Cc1cc2ncnn2cc1Nc1ncc2c(n1)n(C1CCOCC1)c(=O)n2C [AZD7648] (first compound max 1 µM, 7x7, partner max 10 µM) equals -0.0237
